# target.desc: 22Kit
# experimental.details: Fluorescence titration, binding of dye to 22Kit
# Parameters: species or system human
# conditions.used: buffer PBS150K
experimental.endpoint: pKd
Answers are plain numbers, as −log10 of the molar value.

I have 2 molecules here; please give me pKd for each one.
1. Cc1ccc2c(c1)sc(-c1ccc(N(C)C)cc1)[n+]2C.[Cl-] [ThT, thioflavin T, reference compound]
2. Cc1ccc2c(c1)sc(-c1ccc(N(C)C)cc1)[n+]2CCO

[4.91, 4.40]

====

# target.desc: 18Ras
# experimental.details: Fluorescence titration, binding of dye to 18Ras
# Set-up: species or system human
# conditions.used: buffer PBS153NM
Kindly state pKd for each of the entries shown.
One number for each entry, as −log10 of the molar value.

Output measured pKd for this item: `Cc1ccc2c(c1)sc(-c1ccc(N(C)C)cc1)[n+]2CCO`
4.55

Proceeding to the next molecule to report its pKd.
Output measured pKd for this item: Cc1ccc2c(c1)sc(-c1ccc(N(C)C)cc1)[n+]2C.[Cl-] [ThT, thioflavin T, reference compound]
4.80

====

# target.desc: 27Myc
# experimental.details: Fluorescence titration, binding of dye to 27Myc
# Set-up: species or system human
# conditions.used: buffer PBS153NM; read-out: Kd 27Mye
Kindly state pKd for each of the entries shown.
Answers are plain numbers, as −log10 of the molar value.

Output measured pKd for this item: Cc1ccc2c(c1)sc(-c1ccc(N(C)C)cc1)[n+]2C.[Cl-] [ThT, thioflavin T, reference compound]
5.14

Proceeding to the next compound to report its pKd.
Output measured pKd for this item: `Cc1ccc2c(c1)sc(-c1ccc(N(C)C)cc1)[n+]2CCO`
4.86

====

# target.desc: 22Kit
# experimental.details: Fluorescence titration, binding of dye to 22Kit
# Parameters: species or system human
# conditions.used: buffer PBS153NM
Kindly state Kd for each of the entries shown.

Output measured Kd for this item: Cc1ccc2c(c1)sc(-c1ccc(N(C)C)cc1)[n+]2C.[Cl-] [ThT, thioflavin T, reference compound]
7.2 µM

Next:
Output measured Kd for this item: `Cc1ccc2c(c1)sc(-c1ccc(N(C)C)cc1)[n+]2CCO`
12.3 µM

====

# target.desc: 26Tel
# experimental.details: Fluorescence titration, binding of dye to 26Tel
# Parameters: species or system human
# conditions.used: buffer PBS150K
experimental.endpoint: pKd
Answers are plain numbers, as −log10 of the molar value.

I have 2 compounds here; please give me pKd for each one.
1. Cc1ccc2c(c1)sc(-c1ccc(N(C)C)cc1)[n+]2C.[Cl-] [ThT, thioflavin T, reference compound]
2. Cc1ccc2c(c1)sc(-c1ccc(N(C)C)cc1)[n+]2CCO

1: 5.30; 2: 4.97

====

# target.desc: ssDNA
# experimental.details: Fluorescence titration, binding of dye to ssDNA standard
# conditions.used: buffer PBS153NM; n.d. cells
pKd: −log10 of the molar value.
Kindly state pKd for each of the entries shown.

Output measured pKd for this item: Cc1ccc2c(c1)sc(-c1ccc(N(C)C)cc1)[n+]2CCO [ThT-HE]
< 4.40

Proceeding to the next molecule to report its pKd.
Output measured pKd for this item: Cc1ccc2c(c1)sc(-c1ccc(N(C)C)cc1)[n+]2C.[Cl-] [ThT, thioflavin T, reference compound]
< 4.40

====

# target.desc: 22AG
# experimental.details: Fluorescence titration, binding of dye to 22AG
# Design: species or system human
# conditions.used: buffer PBS153NM; n.d. cells
# Procedure: The following six kinds of G4-forming human-derived oligonucleotides were used: telomere regions (22AG and 26Tel); Each of the eight kinds of oligonucleotides (22AG, 26Tel, 27Myc, 22Kit, 20Src, 18Ras, ssDNA, and dsDNA) was dissolved in the buffer TRS50K, PBS150K, PBS140KM, or PBS153NM at a concentration of 21 μM, and denatured by heating at 95° C. […] An emission spectrum of each dye was obtained by excitation at 415 nm and monitoring of fluorescence between 450 nm and 600 nm. […]
experimental.endpoint: Kd

Output measured Kd for this item: Cc1ccc2c(c1)sc(-c1ccc(N(C)C)cc1)[n+]2C.[Cl-] [ThT, thioflavin T, reference compound]
> 40 µM

Next:
Output measured Kd for this item: `Cc1ccc2c(c1)sc(-c1ccc(N(C)C)cc1)[n+]2CCO`
> 40 µM

====

Kindly state Kd for each of the entries shown.
# target.desc: 18Ras
# experimental.details: Fluorescence titration, binding of dye to 18Ras
# Design: species or system human
# conditions.used: buffer PBS150K

Output measured Kd for this item: `Cc1ccc2c(c1)sc(-c1ccc(N(C)C)cc1)[n+]2CCO`
20.9 µM

Next:
Output measured Kd for this item: Cc1ccc2c(c1)sc(-c1ccc(N(C)C)cc1)[n+]2C.[Cl-] [ThT, thioflavin T, reference compound]
10.3 µM

====

Kindly state Kd for each of the entries shown.
# target.desc: 22AG
# experimental.details: Fluorescence titration, binding of dye to 22AG
# Parameters: species or system human
# conditions.used: buffer PBS150K
# Protocol: The following six kinds of G4-forming human-derived oligonucleotides were used: telomere regions (22AG and 26Tel); Each of the eight kinds of oligonucleotides (22AG, 26Tel, 27Myc, 22Kit, 20Src, 18Ras, ssDNA, and dsDNA) was dissolved in the buffer TRS50K, PBS150K, PBS140KM, or PBS153NM at a concentration of 21 μM, and denatured by heating at 95° C. […] An emission spectrum of each dye was obtained by excitation at 415 nm and monitoring of fluorescence between 450 nm and 600 nm. […]
Show the value, then the unit it is measured in.

Output measured Kd for this item: Cc1ccc2c(c1)sc(-c1ccc(N(C)C)cc1)[n+]2C.[Cl-] [ThT, thioflavin T, reference compound]
7.3 µM

Proceeding to the next compound to report its Kd.
Output measured Kd for this item: `Cc1ccc2c(c1)sc(-c1ccc(N(C)C)cc1)[n+]2CCO`
17.6 µM

====

# target.desc: dsDNA
# experimental.details: Fluorescence titration, binding of dye to dsDNA standard
# conditions.used: buffer PBS150K; n.d. cells
experimental.endpoint: Kd

Output measured Kd for this item: Cc1ccc2c(c1)sc(-c1ccc(N(C)C)cc1)[n+]2C.[Cl-] [ThT, thioflavin T, reference compound]
> 40 µM

Proceeding to the next compound to report its Kd.
Output measured Kd for this item: `Cc1ccc2c(c1)sc(-c1ccc(N(C)C)cc1)[n+]2CCO`
> 40 µM

====

# target.desc: 27Myc
# experimental.details: Fluorescence titration, binding of dye to 27Myc
# Design: species or system human
# conditions.used: buffer PBS150K; read-out: Kd 27Mye
experimental.endpoint: pKd
Numbers only, as −log10 of the molar value.

Output measured pKd for this item: `Cc1ccc2c(c1)sc(-c1ccc(N(C)C)cc1)[n+]2CCO`
4.62

Proceeding to the next compound to report its pKd.
Output measured pKd for this item: Cc1ccc2c(c1)sc(-c1ccc(N(C)C)cc1)[n+]2C.[Cl-] [ThT, thioflavin T, reference compound]
5.06
